# Assay overview: folding stability dG unfold (combined trypsin and chymotrypsin); higher = more stable
The sequences listed here are annotated with their folding stability dG unfold.
Response body: numeric value in kcal/mol, unit text excluded.

- Item sequence: "SAGGSAMPIELDLVIEIPIDAHPDQTVEDLVEEIAERIRRLLPPDTVVELRVHLHPELGVALADVSSAGGSA [r15_739_TrMRF]"
  folding stability dG unfold, kcal/mol: 0.988
- Item sequence: "SAGGSAGGSAGIKIVAPSPELADMIAKEIAKEFGLPGKIKDIEIEVIPYKPTPNGGYQPYSAGGSAGGSAGG [r17_237_TrROS]"
  folding stability dG unfold, kcal/mol: -0.383
- Item sequence: "SAGGSAGGSAGGMLTIVEVLSKDPEKPVYTVKVKFPDGSEKTLEVPPELLSNPEKEIVLESAGGSAGGSAGG [r7_117_JUSTAS]"
  folding stability dG unfold, kcal/mol: 1.47
- Item sequence: "SNKKWRTIELDFWFRTPEQAREWANNLARRLPPDNIDSISVEVEPFPVRKNGEPVGPVYRFKLTIMVRPESA [r9_605_TrROS]"
  folding stability dG unfold, kcal/mol: 2.6

Lab note: next sequence to report on.
Can you look up the measured folding stability dG unfold of SAEERVFLVPVERRPDGSVRLRFVRPDRVVELELPAGFTVEDALQALSAHPDLRVEVLEAHPDLVLVRGSAG [r14_404_TrMRF] for me?
2.46

* * *

# Assay overview: folding stability dG unfold from chymotrypsin proteolysis; higher = more stable
Property label: folding stability dG unfold
Mention the unit after the number when you answer.

- Item sequence: "SAGGSAKRKVEIEIVLSAEELEEAIKEGKPLSEELQKRIEELLKKAEEAGIDEVRIRIVPPGLPEPSAGGSA [r15_304_TrROS_Hall]"
  folding stability dG unfold: "1.22 kcal/mol"

Can you look up the measured folding stability dG unfold of SAGGKLTELIRSLFEKLNVPLEPLETGPNSAIFRFPGKPGVFELPGNSRIVIFEDGLVVVVAPPNDLSAGGS [r8_297_TrMRF] for me?
1.57 kcal/mol

* * *

# Assay overview: folding stability dG unfold from chymotrypsin proteolysis; higher = more stable
Assign MET whenever folding stability dG unfold does not fall below 2 kcal/mol; assign NOT MET whenever it does.

// known answers, use as guide
- Item sequence: "SAGGSSEIVELKSIEKKGNSVILTLESKTNDYKVVVVIEGNKIRAYVFDKNGNIIAEFEFDGHPYLSAGGSA [r2_437_TrMRF]"
  Category label: "MET"
- Item sequence: "SSPKILTESELKITIPMTDPETGKPINLEVTIPLLVDPATGTVEVLEIKITGPEEVQEILKKLIEKLIKESA [r9_619_JUSTAS]"
  Category label: "MET"
- Item sequence: "SAGPTVRIRFAGEEEIEVEVGEELEIRLPDGSVVRIRVKPDGTVTVTRPDGSEVELEDVDEVEIEVFPASAG [r5_869_TrROS_Hall]"
  Category label: "MET"

Kindly determine if folding stability dG unfold recorded for SAGGSAGGSAGGKTVWIPWDDLEELKDLPPGKKRTIHLWNPKNGRWYRITVTDNNIEIERSAGGSAGGSAGG [r7_765_TrROS] is above or exactly 2 kcal/mol.
MET

Kindly determine if folding stability dG unfold recorded for SAGGMIRIERDGDRLTIQIPMPPGQPPTPEQVEEFARDILKKLGPDVRVKDVSHDPNGGFTIELKVPSAGGS [r8_103_TrROS] is above or exactly 2 kcal/mol.
MET

Kindly determine if folding stability dG unfold recorded for SAGGSAGGSAGLEVPPGVPVKIPVVYVDKENDYVIVTELTITPDSGEIFYDPKIIPKKELSAGGSAGGSAGG [r11_468_TrMRF] is above or exactly 2 kcal/mol.
NOT MET

Kindly determine if folding stability dG unfold recorded for SAGGSAGGSAGGSKKKKKKKKKKVVKLTVLIEKDGELYLVEIEFDKDGKIVSISVEKLPSAGGSAGGSAGGS [r4_192_TrROS_Hall] is above or exactly 2 kcal/mol.
MET

Kindly determine if folding stability dG unfold recorded for SAGGSYTVEELPPGGILRITFTVPKSRPAEVPLELKAPDGTPVDVESYSITPVGDTNVITYTIKVPLSAGGS [r16_499_JUSTAS] is above or exactly 2 kcal/mol.
NOT MET

* * *

# Assay overview: folding stability dG unfold from chymotrypsin proteolysis; higher = more stable
Assign fulfilled whenever folding stability dG unfold does not fall below 3 kcal/mol; assign not fulfilled whenever it does.

// known answers, use as guide
- Item sequence: "SAGGMTLEELAARVGRVEVEEAEDGGRVLRVTIPLAGPGGPPAPRTFLIEIPPDRPDLTIAEVLARLGSAGG [r13_319_TrMRF]"
  Category label: "not fulfilled"
- Item sequence: "SAGMEKVKLTFKTEDGSEVEIEIVKNEDGSYFVKVKVDKENQEIYVFNADGELIEKIKVKSLEDALKALSAG [r5_757_TrROS_Hall]"
  Category label: "fulfilled"
- Item sequence: "SAGGSAGGMKVKIKLGPGEEVEIEVVEDKETNKLYFKIVNKKTKKVYVFETLEEAKNMSLEELLSAGGSAGG [r6_739_TrROS_Hall]"
  Category label: "fulfilled"
- Item sequence: "SLIEALRAALEAGADEVTLRIVMPEEEAEELEKALEDLGFEIVSRERVEVDGRRYLVMEIRLRAPPPEEPSA [r9_498_TrROS_Hall]"
  Category label: "fulfilled"
- Item sequence: "SAGGKTLTIEVNGKKYKITVEKNENGELTLTIYEYDKKTKKWKKIKTIKLKNMSLEEVLKLLKKLPPSAGGS [r16_378_TrROS_Hall]"
  Category label: "fulfilled"
- Item sequence: "SAGGSAGGSAGGGMKVKIETTKLPNGIWRVKVYDENGNFIGEKEFTSEEELEEFKKKVASSAGGSAGGSAGG [r7_476_JUSTAS]"
  Category label: "fulfilled"
- Item sequence: "SAGGMIVTTIPGSPAIKVEIPFPETPFSATITIPIAPDGTVTADLKPHPDMSEELIEKIKELAKELLKSAGG [r13_139_JUSTAS]"
  Category label: "not fulfilled"
- Item sequence: "SIIIPPKESAEEVLNEIKELLPPGRKYKITVFNPENGRMHEADFDPKKGNIEVEPHPFPNGPPFLMIERKSA [r9_1059_TrROS]"
  Category label: "not fulfilled"

Kindly determine if folding stability dG unfold recorded for SAGGSAGGSAGGMLSTNVTRTITLTYFDPNGSKPIETQTVTVTTFVEIFQEPVGNWTAASAGGSAGGSAGGS [r10_50_JUSTAS] is above or exactly 3 kcal/mol.
not fulfilled

Kindly determine if folding stability dG unfold recorded for SAGGMKIEKTPVKIEKEGEDTVIEYKETEYLPDGTVKEYEGILRIPKNTGKITTLEKKLLSTEPILGSAGGS [r16_729_JUSTAS] is above or exactly 3 kcal/mol.
not fulfilled

Kindly determine if folding stability dG unfold recorded for SAGGSAGGSAGGSDKDPDKMKPKPVFEMEIVTYEWEKDGDGDWEPLSVEVQRIRVYAMDSAGGSAGGSAGGS [r4_288_TrROS] is above or exactly 3 kcal/mol.
fulfilled

* * *

The sequences listed here are annotated with their folding stability dG unfold.
# Assay overview: folding stability dG unfold (combined trypsin and chymotrypsin); higher = more stable

Can you look up the measured folding stability dG unfold of SAGGSAGGSEGKEVVVVPAVGVPPEAVRRALEPLGIRTRVVPVPPVRPFRAADPGRVYYTPVGSAGGSAGGS [r12_80_TrMRF] for me?
< -1 kcal/mol

Can you look up the measured folding stability dG unfold of SGMTTPVAEIDNTDGKPEKVKEWIKKTIPKTPPVTVTRTLASGAPSTWTIDPNTGKVTESVPGGHVTVAASA [r9_853_JUSTAS] for me?
< -1 kcal/mol

Can you look up the measured folding stability dG unfold of SAGGSAGGSDWFPIRVEDIEYERDPADGRDSVTIEAQFPGKPHTFTIPPNAPIKPGDELWIPFSAGGSAGGS [r20_49_TrROS] for me?
< -1 kcal/mol

* * *

# Assay overview: folding stability dG unfold from trypsin proteolysis; higher = more stable
Property label: folding stability dG unfold (kcal/mol)
Response body: numeric value in kcal/mol, unit text excluded.

The following sequences have reported results that may help.
- Item sequence: "SAGGSAGGSAGMDKDGKWRRIPFMFVNPGDGYIFKWEIWIYPGGNIELEMEIIGPIKPGASAGGSAGGSAGG [r11_226_TrROS]"
  Property label: "folding stability dG unfold"
  Quantity unit: "kcal/mol"
  Readout value: 3.13
- Item sequence: "SGPGEEEVAKRAAAEAAPTPDVREVTEEVEIVVPGTGEKVVVPVTALRLPDGTIVPLPEEEIRAIAEKLLSA [r9_1056_JUSTAS]"
  Property label: "folding stability dG unfold"
  Quantity unit: "kcal/mol"
  Readout value: 0.341
- Item sequence: "SAGGEVLIDTGPSPEEALYRAYEKGGEVPVIVLEPGSRVLHIFNVRFNPIPKKVEILDEYEIPILPELSAGG [r13_309_TrMRF]"
  Property label: "folding stability dG unfold"
  Quantity unit: "kcal/mol"
  Readout value: 1.18
- Item sequence: "SAGGSAGGSAGGIGPEIVEAALIEAKEKVPEDEEVEILVRDPVTGEVLRLRIYPDRVELGSAGGSAGGSAGG [r7_44_TrMRF]"
  Property label: "folding stability dG unfold"
  Quantity unit: "kcal/mol"
  Readout value: 0.384
- Item sequence: "SAGGGREIKVEFEIPHPNGNQMRITVTIYRSPGGIRIKIPVSYTDPEYRDYMREWAEYLARRIAKELSAGGS [r8_416_TrROS]"
  Property label: "folding stability dG unfold"
  Quantity unit: "kcal/mol"
  Readout value: 3.05
- Item sequence: "SAGGMTVTVKVKPDEYVIVEIENPVLDSTLTYVVPFNSPMTVTLPLPPDYKVKKITVVSPKKVSKELLSAGG [r13_119_JUSTAS]"
  Property label: "folding stability dG unfold"
  Quantity unit: "kcal/mol"
  Readout value: 1.22

Can you look up the measured folding stability dG unfold of SAGGSAGGKTYIVKIVVKNKNGEELELTLEVETEEEAKEAAEELAKKLEEAGYEIVKVEIKKLPSAGGSAGG [r6_869_TrROS_Hall] for me?
3.64

Can you look up the measured folding stability dG unfold of SAGGSAGGSTVEEELLEKAAAAHPPGTTLTVDVVIVDPNNPVPIGTRTVTITVNADGSYTVVDSAGGSAGGS [r20_151_JUSTAS] for me?
2.18
